Origin of values: patent US6410054B1

assay: ADME study of [14C]eplerenone oral solution: plasma, whole blood, saliva pharmacokinetics
Assay type: in vivo, humans
test-conditions: male, human, plasma; 100 mg oral solution of [14C]eplerenone; 12.0 hours after dosing
readout-label: concentration at 12 h (ng/mL)

{"columns": ["molecule", "unit-text", "observed"],
 "data": [
  ["COC(=O)C1CC2=CC(=O)CCC2(C)C23OC2CC2(C)C(CC[C@@]24CCC(=O)O4)C13 (stereo partly shown) [eplerenone]", "ng/mL", 149]
]}

###

assay: Multiple dose study: plasma pharmacokinetics and urinary excretion
Format: in vivo, humans
test-conditions: male, human, plasma, oral, 300 mg, eplerenone 300 mg Dose; Single Dose
readout-label: Tmax

{"columns": ["molecule", "observed"],
 "data": [
  ["COC(=O)C1CC2=CC(=O)CCC2(C)C23OC2CC2(C)C(CC[C@@]24CCC(=O)O4)C13 (stereo partly shown)", "2.4 h"]
]}

###

assay: Effect of food study: plasma pharmacokinetics fasted vs high-fat breakfast
Type: in vivo, humans
test-conditions: male, human, plasma, oral, 100 mg, 100 mg eplerenone capsule; High Fat Breakfast; 4.0 hours after dosing

{"columns": ["compound", "concentration at 4 h, ng/mL"],
 "data": [
  ["COC(=O)C1CC2=CC(=O)CCC2(C)C23OC2CC2(C)C(CC[C@@]24CCC(=O)O4)C13 (stereo partly shown)", 1240]
]}

###

assay: Single dose study: plasma pharmacokinetics of eplerenone, open lactone ring form, spironolactone
test-conditions: male, human, plasma, po, 100 mg

{"columns": ["molecule", "concentration at 4 h / ng/mL"],
 "data": [
  ["COC(=O)C1CC2=CC(=O)CCC2(C)C23OC2CC2(C)C(CC[C@@]24CCC(=O)O4)C13 (stereo partly shown) [eplerenone]", 900]
]}

###

assay: Effect of food study: plasma pharmacokinetics fasted vs high-fat breakfast
Format: in vivo, humans
test-conditions: male, human, plasma, oral, 100 mg, 100 mg eplerenone capsule; Fasted Conditions; 72.0 hours after dosing
readout-label: concentration at 72 h

{"columns": ["compound", "readout-label", "observed"],
 "data": [
  ["COC(=O)C1CC2=CC(=O)CCC2(C)C23OC2CC2(C)C(CC[C@@]24CCC(=O)O4)C13 (stereo partly shown)", "concentration at 72 h", "0 µg/mL"]
]}

###

assay: Single dose study: plasma pharmacokinetics of eplerenone, open lactone ring form, spironolactone
test-conditions: male, human, plasma, po, 100 mg
readout-label: concentration at 96 h (ng/mL)

{"columns": ["compound", "observed"],
 "data": [
  ["COC(=O)C1CC2=CC(=O)CCC2(C)C23OC2CC2(C)C(CC[C@@]24CCC(=O)O4)C13 (stereo partly shown)", 0]
]}

###

assay: Single dose study: plasma pharmacokinetics of eplerenone, open lactone ring form, spironolactone
test-conditions: male, human, plasma, po, 100 mg

{"columns": ["compound", "concentration at 8 h (ng/mL)"],
 "data": [
  ["COC(=O)C1CC2=CC(=O)CCC2(C)C23OC2CC2(C)C(CC[C@@]24CCC(=O)O4)C13 (stereo partly shown) [eplerenone]", 275]
]}

###

assay: Multiple dose study: plasma pharmacokinetics and urinary excretion
Format: in vivo, humans
test-conditions: male, human, plasma, oral, 100 mg, eplerenone 100 mg Dose; Multiple Dose

{"columns": ["compound", "Cmax [ng/mL]"],
 "data": [
  ["COC(=O)C1CC2=CC(=O)CCC2(C)C23OC2CC2(C)C(CC[C@@]24CCC(=O)O4)C13 (stereo partly shown)", 1900]
]}

###

assay: ADME study of [14C]eplerenone oral solution: plasma, whole blood, saliva pharmacokinetics
Type: in vivo, humans
test-conditions: male, human, plasma; 100 mg oral solution of [14C]eplerenone; 6.0 hours after dosing

{"columns": ["compound", "concentration at 6 h / ng/mL"],
 "data": [
  ["COC(=O)C1CC2=CC(=O)CCC2(C)C23OC2CC2(C)C(CC[C@@]24CCC(=O)O4)C13 (stereo partly shown)", 596]
]}

###

assay: Single dose study: plasma pharmacokinetics of eplerenone, open lactone ring form, spironolactone
test-conditions: male, human, plasma, po, 10 mg

{"columns": ["molecule", "concentration at 48 h / ng/mL"],
 "data": [
  ["COC(=O)C1CC2=CC(=O)CCC2(C)C23OC2CC2(C)C(CC[C@@]24CCC(=O)O4)C13 (stereo partly shown)", 0]
]}

###

assay: Multiple dose study: plasma pharmacokinetics and urinary excretion
Assay type: in vivo, humans
test-conditions: male, human, plasma, oral, 300 mg, eplerenone 300 mg Dose; Multiple Dose
readout-label: Cmax

{"columns": ["compound", "observed"],
 "data": [
  ["COC(=O)C1CC2=CC(=O)CCC2(C)C23OC2CC2(C)C(CC[C@@]24CCC(=O)O4)C13 (stereo partly shown) [eplerenone]", "3580 ng/mL"]
]}

###

assay: Single dose study: plasma pharmacokinetics of eplerenone, open lactone ring form, spironolactone
test-conditions: male, human, plasma, po, 1000 mg
readout-label: Cmax (ng/mL)

{"columns": ["compound", "readout-label", "observed"],
 "data": [
  ["COC(=O)C1CC2=CC(=O)CCC2(C)C23OC2CC2(C)C(CC[C@@]24CCC(=O)O4)C13 (stereo partly shown)", "Cmax", 7260]
]}

###

assay: Single dose study: plasma pharmacokinetics of eplerenone, open lactone ring form, spironolactone
test-conditions: male, human, plasma, po, 100 mg

{"columns": ["molecule", "concentration at 16 h"],
 "data": [
  ["COC(=O)C1CC2=CC(=O)CCC2(C)C23OC2CC2(C)C(CC[C@@]24CCC(=O)O4)C13 (stereo partly shown)", "41.9 ng/mL"]
]}

###

assay: ADME study of [14C]eplerenone oral solution: plasma, whole blood, saliva pharmacokinetics
Format: in vivo, humans
test-conditions: male, human, plasma; 100 mg oral solution of [14C]eplerenone; 48.0 hours after dosing
readout-label: concentration at 48 h (ng/mL)

{"columns": ["compound", "unit-text", "observed"],
 "data": [
  ["COC(=O)C1CC2=CC(=O)CCC2(C)C23OC2CC2(C)C(CC[C@@]24CCC(=O)O4)C13 (stereo partly shown) [eplerenone]", "ng/mL", 0]
]}

###

assay: Single dose study: plasma pharmacokinetics of eplerenone, open lactone ring form, spironolactone
test-conditions: male, human, plasma, po, 50 mg
readout-label: concentration at 12 h

{"columns": ["compound", "readout-label", "observed"],
 "data": [
  ["CC(=O)S[C@@H]1CC2=CC(=O)CC[C@]2(C)[C@H]2CC[C@@]3(C)[C@@H](CC[C@@]34CCC(=O)O4)[C@H]12 [spironolactone, Spironolactone, reference compound]", "concentration at 12 h", "0 ng/mL"]
]}

###

assay: ADME study of [14C]eplerenone oral solution: plasma, whole blood, saliva pharmacokinetics
Type: in vivo, humans
test-conditions: male, human, plasma; 100 mg oral solution of [14C]eplerenone; 2.0 hours after dosing

{"columns": ["compound", "unit-text", "concentration at 2 h"],
 "data": [
  ["COC(=O)C1CC2=CC(=O)CCC2(C)C23OC2CC2(C)C(CC[C@@]24CCC(=O)O4)C13 (stereo partly shown)", "ng/mL", 1420]
]}

###

assay: Single dose study: plasma pharmacokinetics of eplerenone, open lactone ring form, spironolactone
test-conditions: male, human, plasma, po, 10 mg

{"columns": ["compound", "concentration at 2 h"],
 "data": [
  ["COC(=O)C1CC2=CC(=O)CCC2(C)C23OC2CC2(C)C(CC[C@@]24CCC(=O)O4)C13 (stereo partly shown)", "159 ng/mL"]
]}

###

assay: Single dose study: plasma pharmacokinetics of eplerenone, open lactone ring form, spironolactone
test-conditions: male, human, plasma, po, 50 mg
Each item that follows carries a reported concentration at 32 h.

{"columns": ["compound", "concentration at 32 h [ng/mL]"],
 "data": [
  ["CC(=O)S[C@@H]1CC2=CC(=O)CC[C@]2(C)[C@H]2CC[C@@]3(C)[C@@H](CC[C@@]34CCC(=O)O4)[C@H]12 [spironolactone, Spironolactone, reference compound]", 0],
  ["COC(=O)C1CC2=CC(=O)CCC2(C)C23OC2CC2(C)C(CC[C@@]24CCC(=O)O4)C13 (some centres unmarked)", 0]
]}

###

assay: Single dose study: plasma pharmacokinetics of eplerenone, open lactone ring form, spironolactone
test-conditions: male, human, plasma, po, 300 mg
Protocol: The pharmacokinetics, safety and antialdosterone activity of single 10, 50, 100, 300 and 1000 mg oral doses of eplerenone were evaluated in a single-center, randomized, double-blind, placebo-controlled study. The study employed seven parallel dose groups of eight healthy male humans. The eplerenone capsules administered corresponded to the capsules (or combinations of the capsules) disclosed in Examples 4, 5, 7 and 8 above. The placebo was a conventional capsule containing lactose. […]

{"columns": ["molecule", "unit-text", "concentration at 48 h"],
 "data": [
  ["COC(=O)C1CC2=CC(=O)CCC2(C)C23OC2CC2(C)C(CC[C@@]24CCC(=O)O4)C13 (stereo partly shown)", "ng/mL", 1.7]
]}
